Values compiled from patent US20230381142A1.

# Tested on: L. donovani intracellular amastigotes infecting THP-1 macrophages
# assay-text: GSK intramacrophage L. donovani assay (LD AMMAC, inMac; Assay Conditions C)
# Type: cell-based
# condition-details: Leishmania donovani; values marked c: THP-1 cells; read-out: L. donovani amastigotes EC50 (μM, THP-1 or B10R cells)
Item-by-item account of EC50
Response body: numeric value in µM, unit text excluded.

These recorded examples may help you get a feel for the data.
CC(C)Cc1n[nH]c2c1C(c1c(Cl)cccc1Cl)N(c1ccc(N(C)C)cc1)C2=O (stereo not shown): 4
COc1cc(N2C(=O)c3[nH]nc(CC(C)C)c3C2c2ccccc2Br)cc(OC)c1OC (stereo not shown): 6.3

Please give the measured EC50 for this compound: COc1ccccc1N1C(=O)c2[nH]nc(CC(C)C)c2C1C1CCCCC1 (stereo not shown)
10

And the next one, COc1cc(N2C(=O)c3[nH]nc(CC(C)C)c3C2c2ccc(F)cc2)ccc1F (stereo not shown) ?
20

----------
Item-by-item account of CC50 at 72 h
# assay-text: UCSD infection assay, host cell cytotoxicity (CC50)
# Type: cell-based
# condition-details: host macrophages infected with L. donovani; cytotoxicity against host macrophages

COc1cc(F)ccc1C1c2c(CC(C)C)n[nH]c2C(=O)N1c1ccc(N(C)C)cc1 (stereo not shown) [Compound 82]: 8.5 µM
COc1ccccc1C1c2c(CC(C)C)n[nH]c2C(=O)N1c1ccc(Br)cc1 (stereo not shown) [Compound 75]: 1.14 µM
Cc1cc(F)ccc1C1c2c(CC(C)C)n[nH]c2C(=O)N1c1ccc(Br)cc1 (stereo not shown) [Compound 76]: 3.04 µM

Now for another entry.
Please give the measured CC50 at 72 h for this molecule: Cc1cc(F)ccc1C1c2c(CC(C)C)n[nH]c2C(=O)N1c1ccc2ncnn2c1 (stereo not shown) [Compound 89]
> 20 µM

----------
# assay-text: UCSD infection assay, host cell cytotoxicity (CC50)
# Type: cell-based
# condition-details: host macrophages infected with L. donovani; cytotoxicity against host macrophages
Consider the cut-off 5 µM. If the recorded CC50 at 72 h is strictly smaller, the label is Yes; if not, the label is No.

Example results:
COc1cc(F)ccc1C1c2c(CC(C)C)n[nH]c2C(=O)N1c1ccc(Br)cc1 (centres unmarked) [Compound 77]: Yes
CC(C)Cc1n[nH]c2c1C(c1ccccc1Cl)N(c1ccc3c(c1)OCO3)C2=O (centres unmarked) [Compound 67]: No
COc1ccc(N2C(=O)c3[nH]nc(CC(C)C)c3C2c2ccc(F)cc2C)cc1F (centres unmarked) [Compound 73]: No
CC(C)Cc1n[nH]c2c1C(c1ccccc1Cl)N(c1ccc(N(C)C)cc1)C2=O (centres unmarked) [Compound 78]: No
COc1ccc(N2C(=O)c3[nH]nc(CC(C)C)c3C2c2ccccc2OC)cn1 (centres unmarked) [Compound 85]: No
Cc1cc(F)ccc1C1c2c(CC(C)C)n[nH]c2C(=O)N1c1ccc2c(c1)OCO2 (centres unmarked) [Compound 70]: No

Hello, I'm reviewing records and need to know if CC50 at 72 h of Cc1cc(F)ccc1C1c2c(CC(C)C)n[nH]c2C(=O)N1c1ccc(N(C)C)cc1 (centres unmarked) [Compound 81] is below 5 µM. Could you check?
No

And the next one, COc1ccccc1C1c2c(CC(C)C)n[nH]c2C(=O)N1c1ccc(N(C)C)cc1 (centres unmarked) [Compound 80] ?
Yes

And the next one, COc1ccc(N2C(=O)c3[nH]nc(CC(C)C)c3C2c2ccccc2OC)cc1F (centres unmarked) [Compound 72] ?
Yes

And the next one, COc1ccc(N2C(=O)c3[nH]nc(CC(C)C)c3C2c2ccc(F)cc2)cc1 (racemic) [Compound 1] ?
No

----------
# assay-text: Artificial membrane permeability (AMP)
# Assay type: in vitro ADME
# condition-details: PAMPA, pH 7.4
parameter-measured: Papp at 3 h (×10⁻⁶ cm/s)
Response body: numeric value in ×10⁻⁶ cm/s, unit text excluded.

COc1ccc(N2C(=O)c3[nH]nc(CC(C)C)c3C2c2ccccc2)cc1 (centres unmarked) [Compound 2]: 37
COc1ccc(N2C(=O)c3[nH]nc(CC(C)C)c3C2c2cncc(OC)c2)cc1 (centres unmarked) [Compound S11]: 47
COC(=O)c1ccc(C2c3c(CC(C)C)n[nH]c3C(=O)N2c2ccc(OC)cc2)cc1 (centres unmarked) [Compound 51]: 38

Now for another entry.
Please give the measured Papp at 3 h for this molecule: COc1ccc(N2C(=O)c3[nH]nc(CCc4ccccc4)c3C2c2ccc(F)cc2)cc1 (centres unmarked) [Compound 15]
36

----------
# assay-text: GSK inMac assay, host cell toxicity readout (LD MAC)
# Assay type: cell-based, human
# condition-details: human; footnote c; read-out: THP-1 Host Cell CC50
Consider the cut-off 20 µM. If the recorded CC50 is strictly smaller, the label is class 1; if not, the label is class 0.

CC(C)Cc1n[nH]c2c1C(c1ccccc1Br)N(c1ccc(N(C)C)cc1)C2=O (centres unmarked): class 1

Hello, I'm reviewing records and need to know if CC50 of COc1ccc(CN2C(=O)c3[nH]nc(CC(C)C)c3C2c2ccc(F)cc2)cc1 (centres unmarked) is below 20 µM. Could you check?
class 0

And the next one, COc1ccccc1N1C(=O)c2[nH]nc(CC(C)C)c2C1c1ccccc1Cl (centres unmarked) ?
class 0

And the next one, COc1ccccc1N1C(=O)c2[nH]nc(CC(C)C)c2C1c1ccsc1 (centres unmarked) ?
class 1

----------
Item-by-item account of HSA Binding
# tgt: human serum albumin (Homo sapiens)
# Sequence (P02768 25-609): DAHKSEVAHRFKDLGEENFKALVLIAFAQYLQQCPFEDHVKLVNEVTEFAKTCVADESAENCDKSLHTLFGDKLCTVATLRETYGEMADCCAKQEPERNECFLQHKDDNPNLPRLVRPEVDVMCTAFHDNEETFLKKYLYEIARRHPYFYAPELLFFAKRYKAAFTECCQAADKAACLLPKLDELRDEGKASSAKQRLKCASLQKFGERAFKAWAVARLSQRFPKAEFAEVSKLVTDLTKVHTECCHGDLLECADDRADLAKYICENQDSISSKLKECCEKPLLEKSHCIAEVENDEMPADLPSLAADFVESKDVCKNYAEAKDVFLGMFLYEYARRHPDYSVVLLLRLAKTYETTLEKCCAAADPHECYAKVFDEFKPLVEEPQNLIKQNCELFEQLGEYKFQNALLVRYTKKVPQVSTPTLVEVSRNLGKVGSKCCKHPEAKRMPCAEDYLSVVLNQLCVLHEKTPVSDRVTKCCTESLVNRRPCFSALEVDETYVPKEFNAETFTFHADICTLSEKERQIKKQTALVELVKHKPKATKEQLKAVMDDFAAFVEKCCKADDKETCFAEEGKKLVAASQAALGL
# assay-text: Human serum albumin (HSA) binding, chromatographic
# Format: in vitro ADME
# Procedure: The percentage of compound bound to human serum albumin was measured using a chromatographic method as described. Briefly, each compound was assayed on an immobilized HSA column and gradient retention times measured, with chromatographic peak detection by UV. Each retention time was then converted to a % HSA bound value using a calibration set of compounds with a known % HSA binding.
Response body: numeric value in %, unit text excluded.

CC(C)Cc1n[nH]c2c1C(c1ccccc1Br)N(c1ccc(Br)cc1)C2=O (stereo not shown): 98.0
Cc1cc(F)ccc1C1c2c(CC(C)C)n[nH]c2C(=O)N1c1ccc(Br)cc1 (stereo not shown): 97.7
COc1ccc(N2C(=O)c3[nH]nc(CC(C)C)c3C2c2ccncc2)cc1 (stereo not shown): 87.9
COc1ccc(CN2C(=O)c3[nH]nc(CC(C)C)c3C2c2ccc(F)cc2)cc1 (stereo not shown): 98.2
COc1ccc(N2C(=O)c3[nH]nc(CC(C)C)c3C2c2c(Cl)cccc2Cl)cc1 (stereo not shown): 97.1

Please give the measured HSA Binding for this compound: COc1ccc(N2C(=O)c3[nH]nc(CC(C)C)c3C2c2ccccn2)cc1 (stereo not shown)
86.8

And the next one, COc1ccc(N2C(=O)c3[nH]nc(CC(C)C)c3C2c2ccccc2)cc1 (stereo not shown) ?
95.8

And the next one, COc1ccc(N2C(=O)c3[nH]nc(CC(C)C)c3C2c2ccc(C(=O)O)cc2)cc1 (stereo not shown) ?
90.7

And the next one, COc1ccc(N2C(=O)c3[nH]nc(CC(C)C)c3C2c2ccccc2F)cc1 (stereo not shown) ?
97.3

And the next one, COc1ccc(N2C(=O)c3[nH]nc(CC(C)C)c3C2c2cncs2)cc1 (stereo not shown) ?
89.3

And the next one, COc1ccc(N2C(=O)c3[nH]nc(CC(C)C)c3C2c2ccc(F)cc2)cn1 (stereo not shown) ?
95.5

And the next one, COc1cccc(N2C(=O)c3[nH]nc(CC(C)C)c3C2c2ccc(F)cc2)c1 (stereo not shown) ?
97.3

And the next one, C=C(C)CCCc1n[nH]c2c1C(c1ccc(F)cc1)N(c1ccc(OC)cc1)C2=O (stereo not shown) ?
97.9

And the next one, COc1ccc(N2C(=O)c3[nH]nc(CC(C)C)c3C2c2ccc(F)cc2C)cc1 (stereo not shown) ?
97.2

And the next one, COc1ccc(N2C(=O)c3[nH]nc(CC(C)C)c3C2c2ccc(F)cc2)cc1 (racemic) ?
96.4

And the next one, COC(=O)c1ccc(N2C(=O)c3[nH]nc(CC(C)C)c3C2c2ccc(F)cc2)cc1 (stereo not shown) ?
97.5

And the next one, COc1ccc(N2C(=O)c3[nH]nc(CC(C)C)c3C2c2ccc(Br)cc2)cc1 (stereo not shown) ?
97.2

And the next one, COc1ccc(N2C(=O)c3[nH]nc(CC(C)C)c3C2c2ccc(F)c(C)n2)cc1 (stereo not shown) ?
94.4

And the next one, COc1ccc(N2C(=O)c3[nH]nc(CC(C)C)c3C2c2cccc(C(F)(F)F)c2)cc1 (stereo not shown) ?
97.8

And the next one, CC(C)Cc1n[nH]c2c1C(c1ccc(F)cc1)N(C1CCOCC1)C2=O (stereo not shown) ?
90.2

And the next one, Cc1cc(F)ccc1C1c2c(CC(C)C)n[nH]c2C(=O)N1c1ccc2c(c1)OCO2 (stereo not shown) ?
97.6
